For each of the binders below, state its mean fluorescence intensity.
- target: T1, cynomolgus CD47, on CHOK1-cCD47 stable cell line (cynomolgus)
- T1 construct: whole, on cells; check before use; also called CHOK1/cynoCD47; monkey-derived CD47
- measurement-protocol: FACS CHOK1-cCD47; Ab 0.0128 nM
Form: value (number only, do not type unit).

Item 132D1E5 (antibody, V domains shown, Murine hybridoma antibody purified on protein G) VH: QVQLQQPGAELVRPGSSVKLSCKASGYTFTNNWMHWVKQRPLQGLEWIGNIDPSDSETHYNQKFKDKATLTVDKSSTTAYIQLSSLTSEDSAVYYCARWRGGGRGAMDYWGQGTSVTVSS VL: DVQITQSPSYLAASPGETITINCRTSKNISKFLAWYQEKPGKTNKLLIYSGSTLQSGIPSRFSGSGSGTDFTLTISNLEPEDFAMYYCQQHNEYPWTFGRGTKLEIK has what recorded mean fluorescence intensity?
224

Item 20H4G5 (antibody, V domains shown, Murine hybridoma antibody purified on protein G) VH: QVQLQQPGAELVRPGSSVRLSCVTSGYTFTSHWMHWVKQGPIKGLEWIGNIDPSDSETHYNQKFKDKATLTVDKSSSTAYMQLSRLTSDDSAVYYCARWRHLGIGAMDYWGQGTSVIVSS VL: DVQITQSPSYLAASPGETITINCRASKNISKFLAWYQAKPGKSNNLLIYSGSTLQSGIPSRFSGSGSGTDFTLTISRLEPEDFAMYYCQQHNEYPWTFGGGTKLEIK has what recorded mean fluorescence intensity?
343

Item 51E2F11 (antibody, V domains shown, Murine hybridoma antibody purified on protein G) VH: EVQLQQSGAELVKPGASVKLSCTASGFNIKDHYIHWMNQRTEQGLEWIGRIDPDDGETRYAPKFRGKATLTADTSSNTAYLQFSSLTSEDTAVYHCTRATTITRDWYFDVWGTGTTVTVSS VL: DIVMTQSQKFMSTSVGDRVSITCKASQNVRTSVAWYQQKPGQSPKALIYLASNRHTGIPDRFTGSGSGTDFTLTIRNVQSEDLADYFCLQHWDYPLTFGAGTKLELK has what recorded mean fluorescence intensity?
245
